inhibition values by entry
molecular target: Solute carrier family 2, facilitated glucose transporter member 1 (Homo sapiens); assay: ST_JUDE_LEISH: Cytotoxicity at 2uM final concentration against transgenic Leishmania Mexicana promastigotes LmGLUT1 that are glucose transport deficient and complemented with the human glucose transporter GLUT1. Activity is measured by DNA content using SYBR green in vitro; format: functional
Quick reminder: number only, in %, skip the unit.

Solved entries (count: 3):
- c1ccc2[nH]c(-c3ccc(-c4ccc(CN5CCN(CCN6CCOCC6)CC5)cc4)s3)nc2c1: 10.4
- Fc1ccccc1-c1cc(Nc2ccncc2)nc(-c2cccnc2)n1: 0.54
- O=C(Nc1cc(C(F)(F)F)cc(C(F)(F)F)c1)Nc1ccc(Cl)c(Cl)c1: 0.47

Pending compound:
Data request: # query: inhibition of entry COc1ccc2nc3ccccc3c(NCCN3CCN(C)CC3)c2c1
Data returned: 7.5
